Molecular target: Muscarinic acetylcholine receptor M3 (Homo sapiens)
Sequence (P20309 whole entry): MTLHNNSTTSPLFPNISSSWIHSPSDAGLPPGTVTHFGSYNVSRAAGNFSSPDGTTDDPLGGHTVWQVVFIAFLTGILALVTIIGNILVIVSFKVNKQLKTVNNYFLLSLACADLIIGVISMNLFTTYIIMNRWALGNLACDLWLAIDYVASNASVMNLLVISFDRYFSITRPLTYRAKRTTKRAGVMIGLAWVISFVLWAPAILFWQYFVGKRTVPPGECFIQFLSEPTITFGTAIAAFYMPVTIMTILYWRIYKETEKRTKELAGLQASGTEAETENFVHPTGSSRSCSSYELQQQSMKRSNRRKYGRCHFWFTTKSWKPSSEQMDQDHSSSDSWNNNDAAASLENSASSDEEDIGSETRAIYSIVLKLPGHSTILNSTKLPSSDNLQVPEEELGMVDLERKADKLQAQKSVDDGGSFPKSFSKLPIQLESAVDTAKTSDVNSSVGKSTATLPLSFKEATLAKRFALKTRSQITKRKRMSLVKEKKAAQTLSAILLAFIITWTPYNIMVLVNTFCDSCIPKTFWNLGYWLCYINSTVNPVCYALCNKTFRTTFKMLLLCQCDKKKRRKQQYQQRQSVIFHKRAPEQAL
Assay: Antagonist activity at human muscarinic M3 receptor by calcium mobilization assay
pIC50: −log10 of the molar value.
readout-label: pIC50

Item CN1CCN(C(=O)[C@@](F)(Cc2ccccc2)c2ccccc2)CC1 (mixture of isomers) has what recorded pIC50? < 5.82

###

Target: Muscarinic acetylcholine receptor M5 (Homo sapiens, UniProt P08912)
Sequence (P08912 whole entry): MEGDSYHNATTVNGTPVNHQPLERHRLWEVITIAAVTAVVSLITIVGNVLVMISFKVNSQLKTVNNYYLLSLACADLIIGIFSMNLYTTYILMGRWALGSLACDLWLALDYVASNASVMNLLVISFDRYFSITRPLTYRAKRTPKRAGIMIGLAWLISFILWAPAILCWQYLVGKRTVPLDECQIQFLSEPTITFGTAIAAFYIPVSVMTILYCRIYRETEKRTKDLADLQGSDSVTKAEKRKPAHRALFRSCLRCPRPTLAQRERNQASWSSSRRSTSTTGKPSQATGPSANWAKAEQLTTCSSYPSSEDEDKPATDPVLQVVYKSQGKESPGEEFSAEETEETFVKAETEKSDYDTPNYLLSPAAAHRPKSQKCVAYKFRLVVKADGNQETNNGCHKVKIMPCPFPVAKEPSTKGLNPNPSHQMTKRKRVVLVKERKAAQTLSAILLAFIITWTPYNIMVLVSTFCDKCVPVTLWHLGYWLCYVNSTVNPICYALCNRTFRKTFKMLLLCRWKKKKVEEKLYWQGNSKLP
Assay: Antagonist activity at human muscarinic M5 receptor by calcium mobilization assay
readout-label: pIC50
One number for each entry, as −log10 of the molar value.

So what's the measured pIC50 for this one? CN1CCN(C(=O)[C@@](F)(Cc2ccccc2)c2ccccc2)CC1 (mixture of isomers) 7.09
